Test system: Candida albicans
Assay: Antimicrobial activity against Candida albicans after 18 to 24 hrs by agar well-diffusion method
Type: functional
Readout Type: MIC (µg/mL)
Give your result in µg/mL as a bare value.

In the examples that follow, each entry is paired with its recorded MIC.
[[record]]
structure_notation = "O=C(/C=C/c1cnc2ccccc2n1)c1ccncc1"
readout_type = "MIC"
numeric_result = 50

[[record]]
structure_notation = "O=C(/C=C/c1cnc2ccccc2n1)c1cccc(Br)c1"
readout_type = "MIC"
numeric_result = 25

[[record]]
structure_notation = "O=C(/C=C/c1cnc2ccccc2n1)c1ccc([N+](=O)[O-])cc1"
readout_type = "MIC"
numeric_result = 50

[[record]]
structure_notation = "O=C(/C=C/c1cnc2ccccc2n1)c1ccc(Cl)cc1"
readout_type = "MIC"
numeric_result = 25


Return reported MIC; argument: O=C(/C=C/c1cnc2ccccc2n1)c1ccc(F)cc1
25

Return reported MIC; argument: O=C(/C=C/c1cnc2ccccc2n1)c1ccc2ccccc2c1
25

----------
Each item that follows carries a reported MIC.
Biological target: Enoyl-[acyl-carrier-protein] reductase [NADH] (Mycobacterium tuberculosis) (UniProt P9WGR1)
Sequence (P9WGR1 whole entry): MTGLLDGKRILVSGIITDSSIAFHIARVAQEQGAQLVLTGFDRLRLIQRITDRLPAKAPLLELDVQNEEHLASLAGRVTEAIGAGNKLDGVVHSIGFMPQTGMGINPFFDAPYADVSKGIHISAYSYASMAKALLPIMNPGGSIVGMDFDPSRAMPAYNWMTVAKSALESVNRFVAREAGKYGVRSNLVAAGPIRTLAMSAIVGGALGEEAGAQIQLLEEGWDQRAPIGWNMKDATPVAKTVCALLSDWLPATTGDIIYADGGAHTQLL
Experiment: Inhibition of Mycobacterium tuberculosis H37Rv enoyl ACP reductase assessed as reduction in bacterial growth after 5 days by microplate alamar blue assay
Give your result in µg/mL as a bare value.

In the examples that follow, each entry is paired with its recorded MIC.
[[record]]
compound = "Nc1cccc(C(=O)/C=C/c2cnc3ccccc3n2)c1"
numeric_result = 25

[[record]]
compound = "O=C(/C=C/c1cnc2ccccc2n1)c1ccc(Br)cc1"
numeric_result = 50

[[record]]
compound = "O=C(/C=C/c1cnc2ccccc2n1)c1ccc2ccccc2c1"
numeric_result = 25

[[record]]
compound = "O=C(/C=C/c1cnc2ccccc2n1)c1ccc(O)cc1"
numeric_result = 3.12

[[record]]
compound = "Nc1ccc(C(=O)/C=C/c2cnc3ccccc3n2)cc1"
numeric_result = 25

[[record]]
compound = "O=C(/C=C/c1cnc2ccccc2n1)c1ccc(F)cc1"
numeric_result = 25

[[record]]
compound = "NC(=O)c1cnccn1"
numeric_result = 3.12

[[record]]
compound = "O=C(/C=C/c1cnc2ccccc2n1)c1ccc(Cl)cc1"
numeric_result = 25


Return reported MIC; argument: COc1ccc(C(=O)/C=C/c2cnc3ccccc3n2)cc1
25

Return reported MIC; argument: O=C(/C=C/c1cnc2ccccc2n1)c1ccc([N+](=O)[O-])cc1
25

----------
Test system: Candida albicans
Experiment: Antimicrobial activity against Candida albicans after 18 to 24 hrs by agar well-diffusion method
Assay type: functional
Each item that follows carries a reported MIC.
Give your result in µg/mL as a bare value.

[[record]]
molecule = "O=C(/C=C/c1cnc2ccccc2n1)c1ccc(Br)cc1"
readout_type = "MIC"
numeric_result = 75

[[record]]
molecule = "OC(Cn1cncn1)(Cn1cncn1)c1ccc(F)cc1F [FLUCONAZOLE]"
readout_type = "MIC"
numeric_result = 16

[[record]]
molecule = "O=C(/C=C/c1cnc2ccccc2n1)c1cccc(O)c1"
readout_type = "MIC"
numeric_result = 10

[[record]]
molecule = "O=C(/C=C/c1cnc2ccccc2n1)c1cccc([N+](=O)[O-])c1"
readout_type = "MIC"
numeric_result = 25

[[record]]
molecule = "Nc1cccc(C(=O)/C=C/c2cnc3ccccc3n2)c1"
readout_type = "MIC"
numeric_result = 25

[[record]]
molecule = "Nc1ccc(C(=O)/C=C/c2cnc3ccccc3n2)cc1"
readout_type = "MIC"
numeric_result = 25

[[record]]
molecule = "O=C(/C=C/c1cnc2ccccc2n1)c1ccccc1"
readout_type = "MIC"
numeric_result = 25


Please find the next molecule below.
Return reported MIC; argument: COc1ccc(C(=O)/C=C/c2cnc3ccccc3n2)cc1
25

----------
Tested on: Escherichia coli
Experiment: Antimicrobial activity against Escherichia coli after 18 to 24 hrs by agar well-diffusion method
Format: functional
Each item that follows carries a reported MIC.
Give your result in µg/mL as a bare value.

In the examples that follow, each entry is paired with its recorded MIC.
[[record]]
structure_notation = "Nc1cccc(C(=O)/C=C/c2cnc3ccccc3n2)c1"
scale_unit = "µg/mL"
numeric_result = 25

[[record]]
structure_notation = "O=C(/C=C/c1cnc2ccccc2n1)c1cccc([N+](=O)[O-])c1"
scale_unit = "µg/mL"
numeric_result = 25

[[record]]
structure_notation = "Nc1ccc(C(=O)/C=C/c2cnc3ccccc3n2)cc1"
scale_unit = "µg/mL"
numeric_result = 25

[[record]]
structure_notation = "O=C(/C=C/c1cnc2ccccc2n1)c1ccc(F)cc1"
scale_unit = "µg/mL"
numeric_result = 25

[[record]]
structure_notation = "O=C(/C=C/c1cnc2ccccc2n1)c1ccc([N+](=O)[O-])cc1"
scale_unit = "µg/mL"
numeric_result = 25


Return reported MIC; argument: O=C(/C=C/c1cnc2ccccc2n1)c1ccc(Cl)cc1
10

Return reported MIC; argument: O=C(/C=C/c1cnc2ccccc2n1)c1ccncc1
25

Return reported MIC; argument: O=C(/C=C/c1cnc2ccccc2n1)c1ccc(O)cc1
5

Return reported MIC; argument: O=C(/C=C/c1cnc2ccccc2n1)c1cccc(O)c1
5

Return reported MIC; argument: COc1ccc(C(=O)/C=C/c2cnc3ccccc3n2)cc1
25

Return reported MIC; argument: O=C(/C=C/c1cnc2ccccc2n1)c1ccc(Br)cc1
25

Return reported MIC; argument: O=C(/C=C/c1cnc2ccccc2n1)c1cccc(Br)c1
5

Return reported MIC; argument: O=C(/C=C/c1cnc2ccccc2n1)c1ccc2ccccc2c1
25

Return reported MIC; argument: O=C(/C=C/c1cnc2ccccc2n1)c1ccccc1
50

----------
Each item that follows carries a reported MIC.
Target: Enoyl-[acyl-carrier-protein] reductase [NADH] (Mycobacterium tuberculosis) (UniProt P9WGR1)
Assay: Inhibition of Mycobacterium tuberculosis H37Rv enoyl ACP reductase assessed as reduction in bacterial growth after 5 days by microplate alamar blue assay
Report the figure along with its unit, number first.

[[record]]
structure_notation = "O=C(/C=C/c1cnc2ccccc2n1)c1cccc(Br)c1"
readout_type = "MIC"
result = "25 µg/mL"

[[record]]
structure_notation = "O=C(O)c1cn(C2CC2)c2cc(N3CCNCC3)c(F)cc2c1=O"
readout_type = "MIC"
result = "3.12 µg/mL"

[[record]]
structure_notation = "O=C(/C=C/c1cnc2ccccc2n1)c1ccccc1"
readout_type = "MIC"
result = "25 µg/mL"


Return reported MIC; argument: O=C(/C=C/c1cnc2ccccc2n1)c1ccncc1
6.25 µg/mL

Return reported MIC; argument: O=C(/C=C/c1cnc2ccccc2n1)c1cccc([N+](=O)[O-])c1
25 µg/mL

Return reported MIC; argument: O=C(/C=C/c1cnc2ccccc2n1)c1cccc(O)c1
3.12 µg/mL

Return reported MIC; argument: CN[C@@H]1[C@H](O[C@H]2[C@H](O[C@H]3[C@H](O)[C@@H](O)[C@H](N=C(N)N)[C@@H](O)[C@@H]3N=C(N)N)O[C@@H](C)[C@]2(O)C=O)O[C@@H](CO)[C@H](O)[C@H]1O
6.25 µg/mL
